Listed next: entries and their corresponding half-life.
# TEST_SUMMARY: Microsomal stability in mouse liver microsome assessed as half life measured upto 60 mins by LC-MS/MS analysis
# Type: ADME
# TEST_CONTEXT: liver microsomes

Worked set:
CN1CCOc2cc(-c3ncc4c(ccn4CC4(C)CCNCC4)c3-c3ccc(C#N)c(F)c3)ccc21: < 0.167 h
Cn1ncc2cc(-c3ncc4c(ccn4CC4(C)CCNCC4)c3-c3ccc(C#N)c(F)c3)ccc21: > 1 h
CN1CCOc2cc(-c3ncc4c(ccn4CC4CCNCC4)c3-c3ccc(C#N)c(F)c3)ccc21: < 0.167 h
Cn1ncc2cc(-c3ncc4c(ccn4C[C@@H]4CCNC4)c3-c3ccc(C#N)c(F)c3)ccc21: > 1 h

Then there is this molecule:
(Q) Consider the molecule shown here: Cn1ncc2cc(-c3ncc4c(ccn4CC4CCNCC4)c3-c3ccc(C#N)c(F)c3)ccc21 What is its recorded half-life?
(A) > 1 h
